The measured values listed here are drawn from patent US10011573B2.

Target: androgen receptor (AR) (Homo sapiens, UniProt P10275, T878A)
Sequence (P10275 1-920 T878A): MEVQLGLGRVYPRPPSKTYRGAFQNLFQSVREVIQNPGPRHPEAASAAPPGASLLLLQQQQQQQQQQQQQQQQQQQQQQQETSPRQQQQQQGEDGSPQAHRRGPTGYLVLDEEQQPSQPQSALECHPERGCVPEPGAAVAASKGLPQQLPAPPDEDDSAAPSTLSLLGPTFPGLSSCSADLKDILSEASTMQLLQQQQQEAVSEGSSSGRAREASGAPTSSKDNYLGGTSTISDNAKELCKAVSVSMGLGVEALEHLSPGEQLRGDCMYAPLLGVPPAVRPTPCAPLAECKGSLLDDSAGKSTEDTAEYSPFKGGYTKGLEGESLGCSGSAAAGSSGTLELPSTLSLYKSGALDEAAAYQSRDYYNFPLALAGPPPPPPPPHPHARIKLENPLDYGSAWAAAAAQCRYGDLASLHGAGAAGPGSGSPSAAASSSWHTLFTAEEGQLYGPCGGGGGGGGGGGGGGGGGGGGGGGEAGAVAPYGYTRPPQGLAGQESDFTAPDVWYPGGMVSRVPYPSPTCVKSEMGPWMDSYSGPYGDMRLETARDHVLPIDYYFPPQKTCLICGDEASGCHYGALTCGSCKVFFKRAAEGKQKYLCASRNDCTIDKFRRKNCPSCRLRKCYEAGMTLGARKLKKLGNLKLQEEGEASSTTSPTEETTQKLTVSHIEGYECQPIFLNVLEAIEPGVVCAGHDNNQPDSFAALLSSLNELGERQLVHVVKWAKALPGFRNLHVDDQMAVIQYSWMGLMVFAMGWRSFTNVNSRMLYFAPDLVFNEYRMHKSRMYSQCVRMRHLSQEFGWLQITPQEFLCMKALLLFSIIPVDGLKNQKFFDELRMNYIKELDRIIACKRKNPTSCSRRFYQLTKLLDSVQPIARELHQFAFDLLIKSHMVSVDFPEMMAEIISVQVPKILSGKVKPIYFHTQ
Assay: eGFP cellular AR transcription assay (LNCaP eGFP cells, LN-ARR2PB-eGFP)
Conditions: eGFP IC50 (μM), Series 1
Consider the cut-off 1 µM. If the recorded IC50 is strictly smaller, the label is Yes; if not, the label is No.

Task item: Dear reviewer, please state whether Clc1ccc(-c2csc(N3CCOCC3)n2)cc1 has IC50 strictly beneath 1 µM.
Reply: No

Task item: Now this one: Ic1ncn(-c2csc(N3CCOCC3)n2)c1I
Reply: No

Task item: Now this one: COc1ccccc1-c1csc(N2CCOCC2)n1
Reply: Yes

Task item: Now this one: N#Cc1ccc(-c2ccc(N3CCOCC3)s2)cc1
Reply: No

Task item: Now this one: Cc1ccc(-c2csc(N3CCOCC3)n2)cc1C
Reply: No

Task item: Now this one: COc1c(F)cccc1-c1csc(N2CCOCC2)n1
Reply: Yes

Task item: Now this one: c1cncc(-c2csc(-c3c[nH]c4ccccc34)n2)c1
Reply: No

Task item: Now this one: Oc1c(F)cccc1-c1csc(N2CCOCC2)n1
Reply: Yes

Task item: Now this one: c1ccc(-c2csc(-c3c[nH]c4ccccc34)n2)cc1
Reply: No

Task item: Now this one: Nc1ccccc1-c1csc(N2CCOCC2)n1
Reply: No

Task item: Now this one: c1ccc2c(-c3nc(-c4ccncc4)cs3)c[nH]c2c1
Reply: No

Task item: Now this one: Cc1ccc(C)c(-c2csc(N3CCOCC3)n2)c1
Reply: Yes

Task item: Now this one: Clc1scc(-c2csc(N3CCOCC3)n2)c1Cl
Reply: Yes

Task item: Now this one: Cc1cccn1-c1csc(N2CCOCC2)n1
Reply: No

Task item: Now this one: c1cc(-c2csc(N3CCOCC3)n2)cs1
Reply: Yes

Task item: Now this one: Fc1ccc(-c2csc(N3CCOCC3)n2)cc1
Reply: Yes

Task item: Now this one: Clc1cn(-c2csc(N3CCOCC3)n2)cn1
Reply: Yes

Task item: Now this one: c1ccc(-c2csc(N3CCSCC3)n2)cc1
Reply: Yes

Task item: Now this one: COc1cc(F)ccc1-c1csc(N2CCOCC2)n1
Reply: Yes

Task item: Now this one: COc1c(-c2csc(N3CCOCC3)n2)ccc(F)c1F
Reply: Yes
